Below is a list of entries, each paired with its recorded cell proliferation value.
# Test system: U2932 parental
# protocol_notes: cell proliferation relative to vehicle (% of vehicle); higher = less growth inhibition
# reported_conditions: 500 nM; 72 h

[
  {
    "smi": "CCc1nc(-c2cccc(C)c2)c(-c2ccnc(NC(=O)c3ccccc3)c2)s1",
    "cell proliferation": 101
  },
  {
    "smi": "Cc1cc(Nc2nc(N[C@@H](C)c3ncc(F)cn3)ncc2Cl)[nH]n1",
    "cell proliferation": 91.5
  },
  {
    "smi": "Oc1cccc(-c2nc(N3CCOCC3)c3oc4ncccc4c3n2)c1",
    "cell proliferation": 48
  },
  {
    "smi": "CCN(c1cc(-c2ccc(CN3CCOCC3)cc2)cc(C(=O)NCc2c(C)cc(C)[nH]c2=O)c1C)C1CCOCC1",
    "cell proliferation": 82.5
  }
]

* * *

# System: U2932 TK216-resistant clone 3
# protocol_notes: cell proliferation relative to vehicle (% of vehicle); higher = less growth inhibition
# reported_conditions: 500 nM; 72 h
Below is a list of entries, each paired with its recorded cell proliferation value.

[
  {
    "molecule": "O=C(Nc1cc(C(F)(F)F)cc(C(F)(F)F)c1)c1cc(Cl)ccc1O",
    "cell proliferation": 102
  },
  {
    "molecule": "COc1cc(Nc2ncc(F)c(Nc3ccc4c(n3)NC(=O)C(C)(C)O4)n2)cc(OC)c1OC",
    "cell proliferation": 103
  },
  {
    "molecule": "NC(=O)c1ncn([C@@H]2O[C@H](CO)[C@@H](O)[C@H]2O)c1O [Mizoribine]",
    "cell proliferation": 99.7
  },
  {
    "molecule": "COc1ccccc1OCC(O)CN1CCN(CC(=O)Nc2c(C)cccc2C)CC1 (stereo not drawn) [Ranolazine]",
    "cell proliferation": 101
  },
  {
    "molecule": "COc1ccc(C2=N[C@@H](c3ccc(Cl)cc3)[C@@H](c3ccc(Cl)cc3)N2C(=O)N2CCNC(=O)C2)c(OC(C)C)c1 [Nutlin-3a]",
    "cell proliferation": 99.2
  },
  {
    "molecule": "Cc1ccc(-c2cc(C(F)(F)F)nn2-c2ccc(S(N)(=O)=O)cc2)cc1 [Celecoxib]",
    "cell proliferation": 98.7
  },
  {
    "molecule": "O=c1[nH]nc(Sc2ncc([N+](=O)[O-])s2)n1-c1ccc2c(c1)OCCO2",
    "cell proliferation": 97.9
  },
  {
    "molecule": "CC(C)(C(=O)NCC(F)(F)C(F)(F)F)C(=O)N[C@@H]1C(=O)Nc2ccccc2-c2ccccc21",
    "cell proliferation": 100
  }
]

* * *

Below is a list of entries, each paired with its recorded cell proliferation value.
# System: U2932 TK216-resistant clone 2
# protocol_notes: cell proliferation relative to vehicle (% of vehicle); higher = less growth inhibition
# reported_conditions: 50 nM; 72 h
Counter-ions that a name gives are not always drawn.
quantity: cell proliferation

[
  {
    "molecule": "CN(Cc1cnc2nc(N)nc(N)c2n1)c1ccc(C(=O)N[C@@H](CCC(=O)O)C(=O)O)cc1 [Methotrexate]",
    "quantity": "cell proliferation",
    "recorded_number": 102
  },
  {
    "molecule": "CCCCCCNC(=O)n1cc(F)c(=O)[nH]c1=O",
    "quantity": "cell proliferation",
    "recorded_number": 98.3
  },
  {
    "molecule": "CN(C)Cc1ccc(S(=O)(=O)n2ccc(/C=C/C(=O)NO)c2)cc1",
    "quantity": "cell proliferation",
    "recorded_number": 99.1
  },
  {
    "molecule": "CCCC(CCC)C(=O)O [Valproic acid sodium salt (Sodium valproate)]",
    "quantity": "cell proliferation",
    "recorded_number": 98.2
  },
  {
    "molecule": "CCNc1nc(Nc2cc(F)c(C(=O)N3CCOCC3)cc2OC)ncc1C(F)(F)F",
    "quantity": "cell proliferation",
    "recorded_number": 101
  },
  {
    "molecule": "O=C(O)C(Cc1c[nH]c2ccccc12)N1C(=O)c2ccccc2C1=O (configuration not stated)",
    "quantity": "cell proliferation",
    "recorded_number": 97.2
  },
  {
    "molecule": "O=C(Nc1cc(C(F)(F)F)cc(C(F)(F)F)c1)c1cc(Cl)ccc1O",
    "quantity": "cell proliferation",
    "recorded_number": 103
  },
  {
    "molecule": "CC(C)(C#N)c1cc(Cn2cncn2)cc(C(C)(C)C#N)c1",
    "quantity": "cell proliferation",
    "recorded_number": 99.8
  },
  {
    "molecule": "CCCCCCCCCCCCc1ccc(S(=O)(=O)Nc2nncs2)cc1",
    "quantity": "cell proliferation",
    "recorded_number": 102
  },
  {
    "molecule": "CCCCCCCCCCCCCCCCCCOP(=O)([O-])OC1CC[N+](C)(C)CC1",
    "quantity": "cell proliferation",
    "recorded_number": 98.7
  },
  {
    "molecule": "CN(C)Cc1c(C(=O)NCCOc2ccc(C(=O)NO)cc2)oc2ccccc12",
    "quantity": "cell proliferation",
    "recorded_number": 99.6
  },
  {
    "molecule": "CCc1cncnc1N1CCN(Cc2nc3ccc(C(F)(F)F)cc3[nH]2)CC1",
    "quantity": "cell proliferation",
    "recorded_number": 100
  }
]
